method notes: adipocyte viability effects, profiling panel, cell-based, 3T3-L1 adipocytes, calcein-AM fluorescence, 48 h, basal (AID 1163); note: test concentration not given here
test parameters: 3T3-L1 adipocytes viability, higher = more signal
measured endpoint: z-score
No unit in the answer, only the number.

Query: z-score; subject: O=c1cccc(-c2ccco2)o1
0.474

Query: z-score; subject: COC(=O)C(CC#Cc1ccc2c(c1)[C@]1(C(=O)N2)[C@H](C(=O)Nc2nc3ccccc3s2)[C@H]2C(=O)O[C@H](c3ccccc3)[C@H](c3ccccc3)N2[C@@H]1c1ccc(OCCO)cc1)C(=O)OC
1.18

Query: z-score; subject: CCCCC(=C=CC[C@H](O)c1ccc(OCCO)cc1)C[C@H](O)COCc1ccccc1
0.516

Query: z-score; subject: C=C(CCCC)/C(=C/C[C@H](OC(C)=O)c1ccc(OCCO)cc1)c1cc(C(=O)OC)ccc1OC
1.18

Query: z-score; subject: CCOC(=O)C1=CCC(c2ccco2)N(S(=O)(=O)c2ccc(C)cc2)C1 (stereo not given)
0.279

Query: z-score; subject: CC1CC/C=C\[C@H]2OC34C=CCN(C(C)(C)C)C(=O)[C@H]3N(C(CO)C(C)C)C(=O)[C@@H]4C2C(=O)O1 (stereo not given in full)
0.385

Query: z-score; subject: CC1CC/C=C\[C@H]2OC34C=CCN(CCN5CCOCC5)C(=O)[C@H]3N(C(C)CO)C(=O)[C@@H]4C2C(=O)O1 (stereo not given in full)
-0.491

Query: z-score; subject: CC(C)c1ccc(NN2C(C(O)Cc3ccccc3)C=CC3C(=O)N(c4ccccc4)C(=O)C32)cc1 (stereo not given)
-0.482

Query: z-score; subject: C[C@@]12COC[C@]13C=C(Br)[C@H](C2)[C@@]1(CO1)C3=O
-0.245

Query: z-score; subject: CCOC(=O)C1=CCC(c2ccccc2)N(S(=O)(=O)c2ccc([N+](=O)[O-])cc2)C1 (stereo not given)
-1.19

Query: z-score; subject: O=C1NC(=O)C2C1C=CC(C(O)c1ccccn1)N2Nc1ccc(Cl)cc1Cl (stereo not given)
-0.253

Query: z-score; subject: [N-]=[N+]=NCc1ccccc1[C@H]1OC(c2ccc(OCCCO)cc2)=N[C@@]1(Cc1ccccc1)C(=O)NCCN1CCOCC1
1.06

Query: z-score; subject: COCC(=C=CC[C@@H](O)c1ccc(OCCO)cc1)CCO
0.376

Query: z-score; subject: COc1ccc(CCNC(=O)[C@@]2(Cc3ccccc3I)c3ccccc3C(=O)N(Cc3ccccc3Cl)[C@H]2c2ccc(CO)cc2)cc1
-0.073

Query: z-score; subject: COc1cc2c(cc1OC)CN(C(=O)[C@@H]1[C@H]3C(=O)O[C@H](c4ccccc4)[C@H](c4ccccc4)N3[C@H](c3ccc(O)cc3)[C@@]13C(=O)Nc1ccc(C#CCCO)cc13)CC2
-0.423

Query: z-score; subject: NC(=O)[C@H]1[C@@H]2C(=O)O[C@@H](c3ccccc3)[C@@H](c3ccccc3)N2[C@@H](c2ccc(O)cc2)[C@]12C(=O)Nc1ccc(C#CC3=CCCCC3)cc12
0.741

Query: z-score; subject: O=c1cccc(-c2ccc(F)cc2)o1
0.616

Query: z-score; subject: O=C(NCC(O)CO)[C@@]1(CCS(=O)(=O)c2ccccc2)COC(c2ccc(OCCCO)cc2)=N1 (stereo not given in full)
-0.0875

Query: z-score; subject: COc1ccc([Si](C)(C)[C@@H]2[C@@H](CC(=O)N3Cc4ccccc4C[C@H]3CO)O[C@]3(C(=O)N(c4ccccc4)c4ccccc43)[C@H]2C)cc1
0.703

Query: z-score; subject: O=C1N[C@@H](Cc2ccccc2)C(=O)N2[C@@H]1C[C@@H](C(=O)O)[C@H]2c1ccc(O)cc1
0.699

Query: z-score; subject: C=CCC(OC(C)=O)[C@@H]1[C@@H](N(Cc2ccc(-c3ccccc3)cc2)C(=O)Cc2ccc(F)cc2)c2cc(OCCCO)ccc2N1C(=O)Cc1ccc2ccccc2c1 (stereo not given in full)
-0.246

Query: z-score; subject: C=C/C=C/[C@@H]1C(=C)CN([C@@H](Cc2ccccc2)C(=O)OC)[C@H]1[C@@H](O)Cc1ccccc1
-0.47

Query: z-score; subject: COc1ccc([Si](C)(C)[C@H]2[C@H](CCO)O[C@@]3(C(=O)N(Cc4ccccc4)c4ccc(N5C(=O)c6ccccc6Oc6ccccc65)cc43)[C@@H]2C)cc1
0.271

Query: z-score; subject: COC(=O)[C@@]1(Cc2ccccc2)[C@H]2c3cc(C(=O)N4CCCC4)n(CCSCCO)c3C[C@H]2CN1C(=O)c1ccccc1
0.629

Query: z-score; subject: NC(=O)NCC#Cc1ccc2c(c1)[C@]1(C(=O)N2)[C@H](C(=O)N2CCN(c3ncccn3)CC2)[C@H]2C(=O)O[C@H](c3ccccc3)[C@H](c3ccccc3)N2[C@@H]1c1ccc(OCCO)cc1
-0.33

Query: z-score; subject: CC(=O)NCCCC[C@@H]1NC(=O)[C@H]2C[C@@H](C(=O)NCCCCCNC(=O)CS)[C@@H](c3cccc(OCCO)c3)N2C1=O
-0.146

Query: z-score; subject: COC(=O)C1=CC(CCCO)=CC(c2ccc(CN3CCCC3)cc2)N(Cc2cc3c(cc2Br)OCO3)C=C1C(=O)OC (stereo not given)
0.151

Query: z-score; subject: O=C1[C@@]23C=C(Br)[C@H](C[C@@H]2COC3)[C@@]12CO2
-1.05

Query: z-score; subject: CO[C@H]1O[C@H](CO)[C@@H](OC(=O)CCc2ccccc2)[C@H](OC(=O)c2cc3ccccc3[nH]2)[C@H]1OC(=O)c1cc2ccccc2[nH]1
0.679

Query: z-score; subject: CN1C(=O)[C@@H]2[C@@H](CC(COc3ccccc3)=C([C@H](O)CCc3ccccc3)[C@@H]2CO)C1=O
-0.13

From: PubChem BioAssay
